assay: RP, Restek Raptor Biphenyl, 100 × 2.1 mm, 2.7 µm, 50 °C, 0.4 mL/min, estimated dead time 0.55 min; A: water + 0.1% formic acid, pH 3; B: methanol + 0.1% formic acid, pH 3; gradient (min/%B) 0/5 1.12/5 6.41/99.5 10.01/99.5; conditions: stereoisomer not certain
Quantity Measured: LC retention time (min)

{"Compound": "C#CCCCCCCCCCCCCCCCC(=O)O", "Quantity Measured": "LC retention time", "Quantitative Readout": 6.53}
{"Compound": "Cn1c(=O)[nH]c2ncn(C)c2c1=O", "Quantity Measured": "LC retention time", "Quantitative Readout": 3.54}
{"Compound": "COc1cc(C(O)C(=O)O)ccc1O (racemic) [DL-4-Hydroxy-3-methoxymandelic acid]", "Quantity Measured": "LC retention time", "Quantitative Readout": 1.73}
{"Compound": "O=C(O)CCCC(O)C(=O)O (racemic) [Disodium (2RS)-2-hydroxyadipate]", "Quantity Measured": "LC retention time", "Quantitative Readout": 1.03}
{"Compound": "O=c1ccn(C2CC(O)C(CO)O2)c(=O)[nH]1 (centres undefined)", "Quantity Measured": "LC retention time", "Quantitative Readout": 1.22}

P. CCCCCCCCCCCC[n+]1cccc(S(=O)(=O)[O-])c1
Q. O=c1[nH]c(=O)c2[nH]cnc2[nH]1
R. O=c1cccc(O)[nH]1 [2,6-DIHYDROXYPYRIDINE]
// ascending sort on recorded LC retention time Present the labels in the sequence the task asks for.
Q, R, P

---

experiment: RP, Restek Raptor Biphenyl, 100 × 2.1 mm, 2.7 µm, 50 °C, 0.4 mL/min, estimated dead time 0.55 min; A: water + 0.1% formic acid, pH 3; B: methanol + 0.1% formic acid, pH 3; gradient (min/%B) 0/5 1.12/5 6.41/99.5 10.01/99.5; conditions: stereoisomer not certain
Counter-ions that a name gives are not always drawn.
Quantity Measured: LC retention time (min)

Please review the following examples before continuing.
{"Compound": "COc1cc(CC(=O)O)ccc1O [HOMOVANILLATE]", "LC retention time [min]": 2.46}
{"Compound": "O=C(O)CNC(=O)c1ccccc1 [HIPPURATE]", "LC retention time [min]": 3.44}
{"Compound": "O=c1ccn(C2CC(O)C(COP(=O)(O)O)O2)c(=O)[nH]1 (centres undefined) [DEOXYURIDINE-MONOPHOSPHATE]", "LC retention time [min]": 0.695}
{"Compound": "Nc1ncnc2c1ncn2C1OC(COP(=O)(O)O)C(OP(=O)(O)O)C1O (centres undefined) [ADENOSINE 3',5'-DIPHOSPHATE]", "LC retention time [min]": 0.695}
{"Compound": "O=C(O)CC(CC(=O)O)C(=O)O", "LC retention time [min]": 0.842}

I. CCCCCC[n+]1cccc(S(=O)(=O)[O-])c1
II. CC(=O)NCCCC(=O)O [4-ACETAMIDOBUTANOATE]
Select one: I or II . Criterion: greater recorded LC retention time. # respond with the chosen item's label
I
(I: 3.92 min, II: 1.42 min)

1. COc1cc(CC(O)C(=O)O)ccc1O (racemic) [DL-Vanillactic acid lithium salt hydrate]
2. CC(C(=O)O)C(=O)O
3. O=C(O)CNC(=O)C=Cc1ccccc1
4. O=c1[nH]c(=O)c2ncn(C3OC(CO)C(O)C3O)c2[nH]1 (centres undefined)
// ascending sort on recorded LC retention time Present the labels in the sequence the task asks for.
2, 4, 1, 3

A. O=C(O)c1ccc[nH]1 [PYRROLE-2-CARBOXYLATE]
B. CC12CCC(=O)C=C1CCC1C2C(O)CC2(C)C(C(=O)CO)CCC12 (centres undefined)
Between A and B , which one shows the smaller LC retention time number? # respond with the chosen item's label
A

A. NC(Cc1c[nH]c2ccccc12)C(=O)O (centres undefined)
B. CC(=O)NC(Cc1ccccc1)C(=O)O (centres undefined)
Select one: A or B . Criterion: greater recorded LC retention time. # respond with the chosen item's label
B

---

test: RP, Restek Raptor Biphenyl, 100 × 2.1 mm, 2.7 µm, 50 °C, 0.4 mL/min, estimated dead time 0.55 min; A: water + 0.1% formic acid, pH 3; B: methanol + 0.1% formic acid, pH 3; gradient (min/%B) 0/5 1.12/5 6.41/99.5 10.01/99.5; conditions: stereoisomer not certain
Quantity Measured: LC retention time (min)

A. CC(C)(CC(=O)O)CC(=O)O [3,3-Dimethylglutaric acid]
B. CCCCCC/C=C/CCCCCCCCCC(=O)O [trans-Vaccenic Acid]
Between A and B , which one shows the smaller LC retention time number? # respond with the chosen item's label
A
(A: 3.16 min, B: 6.61 min)

---

assay: RP, Restek Raptor Biphenyl, 100 × 2.1 mm, 2.7 µm, 50 °C, 0.4 mL/min, estimated dead time 0.55 min; A: water + 0.1% formic acid, pH 3; B: methanol + 0.1% formic acid, pH 3; gradient (min/%B) 0/5 1.12/5 6.41/99.5 10.01/99.5; conditions: stereoisomer not certain
Quantity Measured: LC retention time (min)

1. O=C(O)CCCCCCCC(O)C(O)CCCCCCO (stereo unspecified)
2. CCCCCCCCCCCCCCCCCCCCCCCCCCC(=O)O
Select one: 1 or 2 . Criterion: greater recorded LC retention time. # respond with the chosen item's label
2
(2: 7.05 min, 1: 4.92 min)

---

test: RP, Restek Raptor Biphenyl, 100 × 2.1 mm, 2.7 µm, 50 °C, 0.4 mL/min, estimated dead time 0.55 min; A: water + 0.1% formic acid, pH 3; B: methanol + 0.1% formic acid, pH 3; gradient (min/%B) 0/5 1.12/5 6.41/99.5 10.01/99.5; settings: stereoisomer not certain
Quantity Measured: LC retention time (min)

Please review the following examples before continuing.
{"Compound": "CC(CCC(=O)NCC(=O)O)C1CCC2C3CCC4CC(O)CCC4(C)C3CC(O)C12C (centres undefined)", "LC retention time [min]": 6.16}
{"Compound": "O=Cc1ccccc1", "LC retention time [min]": 2.98}

I. O=C(O)CCCCCC(=O)O [6-CARBOXYHEXANOATE]
II. O=C(O)c1ccc(O)cc1 [4-HYDROXYBENZOATE]
Select one: I or II . Criterion: greater recorded LC retention time. # respond with the chosen item's label
I
(I: 3.35 min, II: 0.822 min)

---

experiment: RP, Restek Raptor Biphenyl, 100 × 2.1 mm, 2.7 µm, 50 °C, 0.4 mL/min, estimated dead time 0.55 min; A: water + 0.1% formic acid, pH 3; B: methanol + 0.1% formic acid, pH 3; gradient (min/%B) 0/5 1.12/5 6.41/99.5 10.01/99.5; settings: stereoisomer not certain
Quantity Measured: LC retention time (min)

{"Compound": "CC(CCC(=O)NCCS(=O)(=O)O)C1CCC2C3CCC4CC(O)CCC4(C)C3CC(O)C12C (configuration not stated) [Taurodeoxycholic acid]", "Output Unit": "min", "Quantitative Readout": 6.16}
{"Compound": "COC(=O)c1c(Cl)nn(C)c1S(=O)(=O)NC(=O)Nc1nc(OC)cc(OC)n1 [Halosulfuron-methyl]", "Output Unit": "min", "Quantitative Readout": 6.42}
{"Compound": "O=C1O[C@H]([C@@H](O)CO)C(O)=C1O [L-Ascorbic acid]", "Output Unit": "min", "Quantitative Readout": 3.46}
{"Compound": "O=C(O)c1cc(O)ccc1O [2,5-DIHYDROXYBENZOATE]", "Output Unit": "min", "Quantitative Readout": 2.57}
{"Compound": "CCCCCCCCCCCCCCCCCC(=O)OC(CC(=O)[O-])C[N+](C)(C)C [Stearoyl-L-carnitine]", "Output Unit": "min", "Quantitative Readout": 6.13}
{"Compound": "CN(C)C(=O)Nc1cccc(C(F)(F)F)c1 [Fluometuron]", "Output Unit": "min", "Quantitative Readout": 4.92}
{"Compound": "CCC=CCC=CCC=CCCCCCCCC(=O)O [Linolenic acid]", "Output Unit": "min", "Quantitative Readout": 6.53}
{"Compound": "COc1cc(OC)nc(NC(=O)NS(=O)(=O)c2cc(NC=O)ccc2C(=O)N(C)C)n1 [Foramsulfron]", "Output Unit": "min", "Quantitative Readout": 5.76}
{"Compound": "CCCCCC=CCC=CCC=CCCCCC(=O)O [γ-Linolenic acid]", "Output Unit": "min", "Quantitative Readout": 6.54}

a. CCC(C)CCCCCCCCCCCCC(=O)O (configuration not stated) [14-Methylhexadecanoic acid]
b. CC(C)C(O)(CC(=O)O)C(=O)O (configuration not stated) [2-Isopropylmalic acid]
c. Cc1cc2nc3c(=O)[nH]c(=O)nc-3n(CC(O)C(O)C(O)CO)c2cc1C (configuration not stated) [RIBOFLAVIN]
Rank descending by LC retention time. Present the labels in the sequence the task asks for.
a, c, b
(a: 6.58 min, c: 4.45 min, b: 2.76 min)
